Target: T1, ScSmc2H-CC110;ScSmc4H-CC110 (Saccharomyces cerevisiae?;Saccharomyces …, UniProt P38989;Q12267 396-792;555-951, |)
T1 sequence 1: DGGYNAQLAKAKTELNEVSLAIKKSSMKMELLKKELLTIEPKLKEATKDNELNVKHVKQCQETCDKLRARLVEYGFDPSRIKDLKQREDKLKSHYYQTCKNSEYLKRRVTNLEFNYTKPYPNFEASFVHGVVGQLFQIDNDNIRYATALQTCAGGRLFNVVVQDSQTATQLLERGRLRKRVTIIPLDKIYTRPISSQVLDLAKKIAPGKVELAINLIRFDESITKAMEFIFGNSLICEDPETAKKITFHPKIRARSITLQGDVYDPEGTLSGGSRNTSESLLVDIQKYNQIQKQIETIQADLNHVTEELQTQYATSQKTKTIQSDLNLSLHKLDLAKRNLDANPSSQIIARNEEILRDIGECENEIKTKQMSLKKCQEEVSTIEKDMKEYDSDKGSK
T1 sequence 2: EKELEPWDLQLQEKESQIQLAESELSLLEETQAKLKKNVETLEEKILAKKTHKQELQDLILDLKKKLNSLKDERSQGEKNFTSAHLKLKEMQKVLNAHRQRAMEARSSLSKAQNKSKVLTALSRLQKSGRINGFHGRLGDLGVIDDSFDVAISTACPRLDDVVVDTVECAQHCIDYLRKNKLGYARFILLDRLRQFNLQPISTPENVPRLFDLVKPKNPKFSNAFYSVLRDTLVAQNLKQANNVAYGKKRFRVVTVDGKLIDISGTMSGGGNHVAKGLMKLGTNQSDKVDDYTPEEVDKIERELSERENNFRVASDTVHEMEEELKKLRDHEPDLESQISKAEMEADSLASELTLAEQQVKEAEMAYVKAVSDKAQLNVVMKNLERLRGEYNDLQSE
Test: fluorescence anisotropy
pKd: −log10 of the molar value.
QUANTITY NAME: pKd

>>> result("ds40 (dsDNA) DNA 1: TTAGTTGTTCGTAGTGCTCGTCTGGCTCTGGATTACCCGC DNA 2: GCGGGTAATCCAGAGCCAGACGAGCACTACGAACAACTAA")
"~7.30"
